- System: Caco-2 cells
- protocol_conditions: 125 µM competitor, Caco-2, p<0.05
Counter-ions that a name gives are not always drawn.

molecule | effect on permeability of montelukast
CN/C(=N/CCSCc1nc[nH]c1C)NC#N [Cimetidine, cimetidine] | enhance permeability
CN(C)C(=O)CCSC(SCCC(=O)O)c1cccc(/C=C/c2ccc3ccc(Cl)cc3n2)c1 (stereo not drawn) [MK571, MK571, sodium salt] | enhance permeability

* * *

- Tested on: Caco-2 cells
- protocol_conditions: 125 µM competitor, Caco-2, p<0.05
measured_metric: effect on permeability of montelukast

smiles_input | assay_result
CC[C@H](C)C(=O)O[C@H]1C[C@H](O)C=C2C=C[C@H](C)[C@H](CC[C@@H](O)C[C@@H](O)CC(=O)O)[C@H]21 | cis-inhibit permeability
O=C1OC(c2ccc(O)c(S(=O)(=O)O)c2)(c2ccc(O)c(S(=O)(=O)O)c2)c2c(Br)c(Br)c(Br)c(Br)c21 | cis-inhibit permeability
